Catalogue of molecules with associated TGI
# System: OVCAR-5 ovarian
# measurement.description: NCI tumour cell line growth inhibition, 48 h
observed.property: TGI

>>> reported("COc1cc2c3c(n(C)c(=O)c2cc1OC)-c1cc2c(cc1/C3=C\\CCCCN1C(=O)c3ccccc3C1=O)OCO2")
"> 100 µM"
>>> reported("CN(C)c1ccc(NN=C2SC(=Nc3ccccc3)C(=Nc3ccccc3)S2)cc1")
"> 100 µM"
>>> reported("CC(=O)C1C(=O)C(=O)N(c2cccc([N+](=O)[O-])c2)C1=O (stereo not drawn)")
"> 100 µM"

----------
# Tested on: KM12 colon
# measurement.description: NCI tumour cell line growth inhibition, 48 h
observed.property: TGI

>>> reported("CC(C)(C)c1cc2c(OC/C=C/c3ccccc3)c(c1)Cc1cc(C(C#N)(OC/C=C/c3ccccc3)OC/C=C/c3ccccc3)cc(c1OC/C=C\\c1ccccc1)Cc1cc(C(C)(C)C)cc(c1OC/C=C/c1ccccc1)Cc1cc(C(C#N)(OC/C=C\\c3ccccc3)OC/C=C/c3ccccc3)cc(c1OC/C=C\\c1ccccc1)C2 (stereo unspecified)")
"> 100 µM"
>>> reported("COc1ccc(CC2(O)C3CC4CCC2C4C3)cc1 (stereo unspecified)")
"> 100 µM"
>>> reported("CO[C@H]1CC(O[C@@H]2/C(C)=C/C[C@@H]3C[C@@H](C[C@]4(C=C[C@H](C)[C@@H](C5CCCCC5)O4)O3)OC(=O)[C@@H]3C=C(C)[C@@H](O)[C@H]4OC/C(=C\\C=C\\[C@@H]2C)[C@]43O)O[C@@H](C)C1O[C@H]1C[C@H](OC)[C@@H](O)[C@H](C)O1 (stereo partly specified)")
"3.54 µM"
>>> reported("C=CCC1(OCc2ccccc2)C(=O)C(=O)OC1C1COC(C)(C)O1 (stereo unspecified)")
"> 100 µM"
>>> reported("NC(N)=NCC[C@H](NC(=O)OCCCCCn1ccc(=O)[nH]c1=O)C(=O)O")
"> 100 µM"
>>> reported("Cc1ccc(C2OC(COCc3ccc(Cl)cc3)C(OCc3ccc(Cl)cc3)C2O)cc1 (stereo unspecified)")
"71.2 µM"
